- Assayed target: BTK (Homo sapiens, UniProt Q06187)
- Construct: purchased Reaction Biology Corporation
- Sequence (Q06187 whole entry): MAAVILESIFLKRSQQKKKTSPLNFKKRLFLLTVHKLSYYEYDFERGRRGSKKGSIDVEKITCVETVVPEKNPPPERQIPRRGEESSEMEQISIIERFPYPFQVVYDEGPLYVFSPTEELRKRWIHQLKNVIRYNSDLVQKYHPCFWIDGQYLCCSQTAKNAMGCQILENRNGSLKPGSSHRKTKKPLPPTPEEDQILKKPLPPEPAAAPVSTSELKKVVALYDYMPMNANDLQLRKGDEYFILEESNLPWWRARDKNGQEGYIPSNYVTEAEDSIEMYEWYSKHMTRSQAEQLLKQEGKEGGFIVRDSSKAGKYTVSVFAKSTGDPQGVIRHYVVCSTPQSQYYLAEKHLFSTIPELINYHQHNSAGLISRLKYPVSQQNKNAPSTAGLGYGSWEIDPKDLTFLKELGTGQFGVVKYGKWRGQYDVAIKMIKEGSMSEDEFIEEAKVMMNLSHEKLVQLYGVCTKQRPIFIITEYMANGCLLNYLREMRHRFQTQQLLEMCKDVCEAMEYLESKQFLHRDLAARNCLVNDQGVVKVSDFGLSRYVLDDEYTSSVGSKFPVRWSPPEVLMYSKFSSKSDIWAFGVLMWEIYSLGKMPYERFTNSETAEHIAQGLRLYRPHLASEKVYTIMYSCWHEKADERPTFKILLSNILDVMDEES
- Measurement notes: BTK kinase assay (HotSpot, 33P ATP)
- Format: biochemical
- Measurement context: 0.1 μM compound, 10 μM ATP
Reported endpoint: BTK @ 0.1 μM (% Inh)

A selection of reference data follows.
Molecule | Assayed target | BTK @ 0.1 μM (% Inh)
Nc1ncnc2c1c(-c1cc(O)cc(F)c1)nn2C1Cc2ccc(F)cc2C1 (stereo not drawn) | BTK (Homo sapiens, UniProt Q06187) | 63.18
COc1ccc(-c2nn(C3Cc4ccccc4C3)c3ncnc(N)c23)cc1N | BTK (Homo sapiens, UniProt Q06187) | 72.03
Nc1ccc(-c2nn(C3Cc4ccccc4C3)c3ncnc(N)c23)cn1 | BTK (Homo sapiens, UniProt Q06187) | 12.19
Nc1ncnc2c1c(-c1ccc(F)c(O)c1)nn2C1CCc2ccccc21 (stereo not drawn) | BTK (Homo sapiens, UniProt Q06187) | 58.79
Cc1nc2ccc(-c3nn(C4Cc5ccccc5C4)c4ncnc(N)c34)cc2[nH]1 | BTK (Homo sapiens, UniProt Q06187) | 11.64

I = Nc1ncnc2c1c(-c1cccc(O)c1)nn2C1Cc2ccccc2C1
II = COc1cc(-c2nn(C3Cc4ccccc4C3)c3ncnc(N)c23)ccc1O
III = Nc1ncnc2c1c(N1CCOCC1)nn2C1Cc2ccccc2C1
Prompt: Thanks in advance: please rank these 3 entries by BTK @ 0.1 μM (% Inh), highest to lowest. Please list each label once, in the requested order.
Response: I, II, III
(I: 66.35 % Inh, II: 43.43 % Inh, III: 1.56 % Inh)

----------
- Assayed target: BTK (Homo sapiens)
- Construct: purchased Reaction Biology Corporation
- Measurement notes: BTK kinase assay (HotSpot, 33P ATP)
- Type: biochemical
- Measurement context: 0.1 μM compound, 10 μM ATP
Reported endpoint: BTK @ 0.1 μM (% Inh)

I = Nc1ncnc2c1c(-c1cc(F)c(F)c(F)c1)nn2C1Cc2ccccc2C1
II = Nc1ncnc2c1c(-c1ccc3[nH]cnc3c1)nn2C1Cc2ccccc2C1
Prompt: Return label of the item with the larger BTK @ 0.1 μM (% Inh). Candidates: I , II . Answer with the label corresponding to your selection.
Response: I

a = Nc1ncnc2c1c(-c1cc(O)c(F)c(F)c1)nn2C1CCc2ncccc21 (stereo not shown)
b = CNc1cc(-c2cn(C3Cc4ccccc4C3)c3ncnc(N)c23)cc(F)c1F
Prompt: Return label of the item with the larger BTK @ 0.1 μM (% Inh). Candidates: a , b . Answer with the label corresponding to your selection.
Response: b
(b: 38.11 % Inh, a: 8.18 % Inh)

----------
- Assayed target: PI3Kδ (Homo sapiens)
- Construct: purchased Reaction Biology Corporation
- Sequence (O00329 whole entry): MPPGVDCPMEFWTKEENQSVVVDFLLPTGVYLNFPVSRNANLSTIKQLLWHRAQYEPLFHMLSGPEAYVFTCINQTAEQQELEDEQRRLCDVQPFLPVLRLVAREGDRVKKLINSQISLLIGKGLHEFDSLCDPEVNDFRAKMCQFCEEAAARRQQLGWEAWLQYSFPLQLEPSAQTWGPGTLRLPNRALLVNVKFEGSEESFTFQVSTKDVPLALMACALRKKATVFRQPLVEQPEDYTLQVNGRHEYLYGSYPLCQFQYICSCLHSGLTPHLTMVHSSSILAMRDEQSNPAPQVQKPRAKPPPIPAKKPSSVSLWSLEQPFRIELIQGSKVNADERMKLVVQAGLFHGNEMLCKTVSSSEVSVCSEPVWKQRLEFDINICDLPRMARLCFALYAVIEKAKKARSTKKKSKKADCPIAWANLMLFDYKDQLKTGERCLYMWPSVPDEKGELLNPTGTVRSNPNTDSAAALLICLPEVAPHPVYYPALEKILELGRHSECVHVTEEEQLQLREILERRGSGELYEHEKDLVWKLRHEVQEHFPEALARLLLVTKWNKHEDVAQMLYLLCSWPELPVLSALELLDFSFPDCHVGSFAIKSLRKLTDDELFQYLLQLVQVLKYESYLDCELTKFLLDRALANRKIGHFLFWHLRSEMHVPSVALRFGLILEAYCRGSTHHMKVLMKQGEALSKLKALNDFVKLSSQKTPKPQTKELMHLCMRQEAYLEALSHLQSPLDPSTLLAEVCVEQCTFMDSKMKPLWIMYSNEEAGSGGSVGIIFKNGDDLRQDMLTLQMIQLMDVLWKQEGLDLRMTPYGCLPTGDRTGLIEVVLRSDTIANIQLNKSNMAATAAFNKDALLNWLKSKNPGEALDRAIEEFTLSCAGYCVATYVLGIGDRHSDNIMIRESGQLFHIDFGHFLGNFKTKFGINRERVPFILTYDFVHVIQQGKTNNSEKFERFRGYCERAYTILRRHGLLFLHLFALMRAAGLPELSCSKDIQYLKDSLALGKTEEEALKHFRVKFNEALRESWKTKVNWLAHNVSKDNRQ
- Sequence (P27986 whole entry partner): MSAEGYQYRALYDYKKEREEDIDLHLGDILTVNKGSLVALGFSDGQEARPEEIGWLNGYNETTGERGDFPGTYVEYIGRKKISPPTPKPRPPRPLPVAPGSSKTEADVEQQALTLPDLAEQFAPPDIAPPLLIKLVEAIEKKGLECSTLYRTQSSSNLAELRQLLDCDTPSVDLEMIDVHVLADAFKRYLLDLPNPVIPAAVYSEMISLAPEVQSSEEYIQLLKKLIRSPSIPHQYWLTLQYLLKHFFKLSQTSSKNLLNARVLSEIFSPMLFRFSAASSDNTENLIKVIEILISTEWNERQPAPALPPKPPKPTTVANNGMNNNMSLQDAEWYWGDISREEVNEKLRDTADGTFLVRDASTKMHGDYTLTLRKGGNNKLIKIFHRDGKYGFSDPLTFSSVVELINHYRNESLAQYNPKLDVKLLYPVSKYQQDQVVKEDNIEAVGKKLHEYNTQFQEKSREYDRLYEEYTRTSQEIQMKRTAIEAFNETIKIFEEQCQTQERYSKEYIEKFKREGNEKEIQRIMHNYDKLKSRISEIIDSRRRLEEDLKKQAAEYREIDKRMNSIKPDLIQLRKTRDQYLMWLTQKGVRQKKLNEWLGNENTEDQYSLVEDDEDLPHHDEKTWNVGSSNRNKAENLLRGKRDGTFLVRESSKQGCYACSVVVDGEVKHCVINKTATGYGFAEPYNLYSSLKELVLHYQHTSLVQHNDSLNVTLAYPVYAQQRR
- Measurement notes: PI3Kδ kinase assay (HTRF, PIP3 detection)
- Type: biochemical
- Measurement context: 0.01 μM compound, 10 μM ATP
Reported endpoint: PI3Kδ @ 0.01 μM (% Inh)

A selection of reference data follows.
Compound | Assayed target | PI3Kδ @ 0.01 μM (% Inh)
N#Cc1cc(-c2cn(C3Cc4ccccc4C3)c3ncnc(N)c23)cc(O)c1F [compound 115] | PI3Kδ (Homo sapiens) | 82.64
CNc1cc(-c2cn(C3Cc4ccccc4C3)c3ncnc(N)c23)cc(F)c1F [compound 113] | PI3Kδ (Homo sapiens) | 20.77
Nc1ncnc2c1c(-c1ccc3[nH]c(O)nc3c1)nn2C1Cc2ccccc2C1 [compound 108] | PI3Kδ (Homo sapiens) | 9.28
NC(=O)c1cc(-c2cn(C3Cc4ccccc4C3)c3ncnc(N)c23)cc(O)c1F [compound 116] | PI3Kδ (Homo sapiens) | 6.65
Nc1ncnc2c1c(-c1cc(O)c(F)c(F)c1)cn2C1CCc2ccccc2C1 (centres unmarked) [compound 114] | PI3Kδ (Homo sapiens) | 41.19
Nc1ncnc2c1c(-c1cccc(F)c1)nn2C1Cc2ccccc2C1 [Compound No. 88] | PI3Kδ (Homo sapiens) | 18.98

P = N#Cc1cc(-c2nn(C3CCc4ccccc4C3)c3ncnc(N)c23)cc(O)c1F (centres unmarked) [compound 130]
Q = CCCCOc1cc(-c2nn(C3Cc4ccccc4C3)c3ncnc(N)c23)ccc1OC [Compound No. 90]
R = Nc1ncnc2c1c(-c1cc(O)c(F)c(F)c1)nn2C1Cc2cc(F)ccc2C1=O (centres unmarked) [compound 127]
S = Nc1nccn2c(C3Cc4ccccc4C3)nc(-c3cc(O)c(F)c(F)c3)c12 [compound 140]
Prompt: Thanks in advance: please rank these 4 entries by PI3Kδ @ 0.01 μM (% Inh), highest to lowest. Please list each label once, in the requested order.
Response: P, S, R, Q

I = Nc1ncnc2c1c(-c1cc(O)c(F)c(F)c1)nn2C1Cc2ccc(F)cc2C1 (centres unmarked) [compound 128]
II = COc1c(Cl)ccc(-c2nn(C3Cc4ccccc4C3)c3ncnc(N)c23)c1Cl [Compound No. 95]
III = Nc1ccc(-c2nn(C3Cc4ccccc4C3)c3ncnc(N)c23)cn1 [Compound No. 96]
IV = Nc1cc(-c2nn(C3CCc4ccccc4C3)c3ncnc(N)c23)cc(F)c1F (centres unmarked) [compound 122]
V = Cn1ncc2c(-c3nn(C4Cc5ccccc5C4)c4ncnc(N)c34)cccc21 [Compound No. 98]
Prompt: In this exercise, place the 5 compounds in ascending sequence of their recorded PI3Kδ @ 0.01 μM (% Inh). Please list each label once, in the requested order.
Response: IV, II, V, III, I
(IV: −3.68 % Inh, II: 3.09 % Inh, V: 14.09 % Inh, III: 32.92 % Inh, I: 56.4 % Inh)

P = N#Cc1c(-c2cc(O)c(F)c(F)c2)c2c(N)ncnc2n1C1Cc2ccccc2C1 [compound 135]
Q = COc1cc(-c2nn(C3Cc4ccccc4C3)c3ncnc(N)c23)cc(C(F)(F)F)c1F [Compound No. 92]
Prompt: Dear colleague, could you let me know whether P or Q has the lower recorded PI3Kδ @ 0.01 μM (% Inh)? Thanks. Answer with the label corresponding to your selection.
Response: Q

----------
- Assayed target: BMX/ETK (Homo sapiens)
- Construct: purchased Reaction Biology Corporation
- Sequence (P51813 whole entry): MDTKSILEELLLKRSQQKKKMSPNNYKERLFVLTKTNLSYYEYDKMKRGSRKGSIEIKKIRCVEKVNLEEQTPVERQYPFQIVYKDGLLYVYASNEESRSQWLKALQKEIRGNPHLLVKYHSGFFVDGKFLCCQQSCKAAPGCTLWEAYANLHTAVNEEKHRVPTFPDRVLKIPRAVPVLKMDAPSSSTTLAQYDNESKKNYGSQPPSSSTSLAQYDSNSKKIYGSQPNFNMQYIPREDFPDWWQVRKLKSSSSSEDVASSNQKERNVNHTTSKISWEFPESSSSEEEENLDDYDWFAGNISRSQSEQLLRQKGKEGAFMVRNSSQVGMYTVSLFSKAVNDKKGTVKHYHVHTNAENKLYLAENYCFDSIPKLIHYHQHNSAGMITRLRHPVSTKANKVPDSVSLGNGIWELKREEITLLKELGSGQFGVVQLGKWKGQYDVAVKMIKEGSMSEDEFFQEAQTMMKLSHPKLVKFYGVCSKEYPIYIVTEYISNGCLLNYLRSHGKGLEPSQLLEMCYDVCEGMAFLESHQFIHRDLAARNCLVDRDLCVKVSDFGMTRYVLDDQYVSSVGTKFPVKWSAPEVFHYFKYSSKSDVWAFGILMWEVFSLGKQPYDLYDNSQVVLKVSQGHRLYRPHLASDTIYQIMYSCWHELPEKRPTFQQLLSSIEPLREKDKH
- Measurement notes: BMX/ETK kinase profiling (BTK protocol)
- Assay type: biochemical
- Measurement context: 0.3 μM compound
Reported endpoint: BMX/ETK @ 0.3 μM (% Inh)

Compound | Unit name | BMX/ETK @ 0.3 μM (% Inh)
Nc1ncnc2c1c(-c1cc(O)c(F)c(F)c1)nn2C1Cc2ccccc2C1 [Compound No. 81] | % Inh | 85.6
Nc1ncnc2c1c(-c1cc(O)cc(F)c1)cn2C1Cc2ccccc2C1 [Compound No. 63] | % Inh | 94.69

a = COc1cc(-c2nn(C3Cc4ccccc4C3)c3ncnc(N)c23)ccc1C [Compound No. 49]
b = Nc1ncnc2c1c(-c1ccc(Cl)c(O)c1)cn2C1Cc2ccccc2C1 [Compound No. 93]
Prompt: Return label of the item with the larger BMX/ETK @ 0.3 μM (% Inh). Candidates: a , b . Answer with the label corresponding to your selection.
Response: b

----------
- Assayed target: PI3Kδ (Homo sapiens)
- Construct: purchased Reaction Biology Corporation
- Measurement notes: PI3Kδ kinase assay (HTRF, PIP3 detection)
- Assay type: biochemical
- Measurement context: 0.1 μM compound, 10 μM ATP
Reported endpoint: PI3Kδ @ 0.1 μM (% Inh)

a = Cc1nc2ccc(-c3nn(C4Cc5ccccc5C4)c4ncnc(N)c34)cc2[nH]1 [Compound No. 82]
b = Nc1ncnc2c1c(-c1cc(O)c(Cl)cc1Cl)nn2C1Cc2ccccc2C1 [Compound No. 103]
Prompt: Return label of the item with the larger PI3Kδ @ 0.1 μM (% Inh). Candidates: a , b . Answer with the label corresponding to your selection.
Response: b
(b: 72.71 % Inh, a: 41.76 % Inh)

P = Nc1ncnc2c1c(-c1ccc(O)nc1)nn2C1CCc2ccccc2C1 (centres unmarked) [compound 24]
Q = Nc1ncnc2c1c(-c1cc(F)c(F)c(F)c1)nn2C1Cc2ccccc2C1 [Compound No. 86]
R = Nc1ncnc2c1c(-c1cc(O)c(F)c(F)c1)nn2C1Cc2cc(F)ccc2C1=O (centres unmarked) [compound 127]
Prompt: In this exercise, place the 3 compounds in ascending sequence of their recorded PI3Kδ @ 0.1 μM (% Inh). Please list each label once, in the requested order.
Response: P, Q, R

1 = Nc1cc(-c2nn(C3Cc4ccccc4C3)c3ncnc(N)c23)ccc1F [Compound No. 87]
2 = Nc1ncnc2c1c(-c1cccc3[nH]ccc13)nn2C1Cc2ccccc2C1 [Compound No. 78]
Prompt: Dear colleague, could you let me know whether 1 or 2 has the lower recorded PI3Kδ @ 0.1 μM (% Inh)? Thanks. Answer with the label corresponding to your selection.
Response: 2

P = Nc1ncnc2c1c(-c1ccc3cc[nH]c3c1)nn2C1CCc2ccccc21 (centres unmarked) [compound 37]
Q = CCOc1ccc(-c2nn(C3Cc4ccccc4C3)c3ncnc(N)c23)cc1OC [Compound No. 71]
Prompt: Return label of the item with the larger PI3Kδ @ 0.1 μM (% Inh). Candidates: P , Q . Answer with the label corresponding to your selection.
Response: Q
(Q: 47.56 % Inh, P: 15.52 % Inh)

A = Nc1ncnc2c1c(-c1ccc(Br)c(O)c1)nn2C1CCc2ccccc21 (centres unmarked) [compound 36]
B = NC(=O)c1cccc(-c2nn(C3CCc4ccccc4C3)c3ncnc(N)c23)c1 (centres unmarked) [compound 27]
Prompt: Return label of the item with the larger PI3Kδ @ 0.1 μM (% Inh). Candidates: A , B . Answer with the label corresponding to your selection.
Response: A
(A: 56.42 % Inh, B: 4.7 % Inh)

1 = COc1ncc(-c2nn(C3CCc4ccccc4C3)c3ncnc(N)c23)cc1F (centres unmarked) [compound 23]
2 = Nc1ncnc2c1c(-c1cc(O)c(F)c(C(F)(F)F)c1)nn2C1CCc2ccccc2C1 (centres unmarked) [compound 123]
3 = CCOc1cc(-c2nn(C3Cc4ccccc4C3)c3ncnc(N)c23)cc(Cl)c1OC(C)C [Compound No. 79]
Prompt: In this exercise, place the 3 compounds in ascending sequence of their recorded PI3Kδ @ 0.1 μM (% Inh). Please list each label once, in the requested order.
Response: 3, 1, 2
